Data credit: patent US20230116972A1

Biological target: mouse CD38 (Mus musculus, UniProt P56528)
Sequence (P56528 whole entry): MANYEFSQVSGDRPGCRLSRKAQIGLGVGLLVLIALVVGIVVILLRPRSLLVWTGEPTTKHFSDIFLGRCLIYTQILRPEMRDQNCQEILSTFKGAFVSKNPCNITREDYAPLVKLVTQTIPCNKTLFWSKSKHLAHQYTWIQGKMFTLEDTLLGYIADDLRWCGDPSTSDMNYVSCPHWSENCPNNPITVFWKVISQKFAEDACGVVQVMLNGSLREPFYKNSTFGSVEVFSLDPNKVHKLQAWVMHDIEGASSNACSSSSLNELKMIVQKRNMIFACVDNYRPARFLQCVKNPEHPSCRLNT
Assay: mouse recombinant CD38 enzyme assay (hydrolysis of NAD+)
Conditions: read-out: mCD38 BioChem IC50
Description: Compounds described herein were assayed for their ability to inhibit the hydrolysis of NAD+ by the protein CD38. […] Dose responses were measured using an assay to detect the hydrolysis of NAD+. […] Subsequent detection of remaining NAD+ was determined by first converting NAD+ to NADH using alcohol dehydrogenase, then using the resulting NADH to reduce resazurine to the fluorescent product resorufin. […] The plates were read for fluorescence (Excitation/Emission=540 nm/590 nm) using an EnVision plate reader. […]
assayReadout: IC50 (nM)

Example cases with answers are listed next.
Quote IC50 reported for O=C(Nc1ccc(C(F)F)nc1)c1nc(C2CC2)cc(-n2ccnc2)n1 please.
1.6

Quote IC50 reported for Cn1cncc1-c1nc(C(=O)Nc2ccc(C(F)(F)F)nc2)cc(C2(C)COC2)n1 please.
1.3

Quote IC50 reported for Cn1cncc1-c1nc(C(=O)N[C@H]2CC[C@H](C(F)F)CC2)cc(C2CCOCC2)n1 please.
2.4

Quote IC50 reported for Cn1cncc1-c1cnc(N)c(C(=O)Nc2ccc(C(F)(F)F)nc2)n1 please.
7.5

Quote IC50 reported for CO[C@H]1CC[C@H](NC(=O)c2cc(C3CCC(F)(F)CC3)nc(-c3cncn3C)n2)CC1 please.
1

(A) Cn1cncc1-c1nccc(C(=O)Nc2ccc(C(F)(F)F)nc2)n1
(B) Cn1cncc1-c1ccnc(C(=O)N[C@H]2C[C@H](c3ccc(F)cc3F)C2)n1
From the items above, decide which of A and B has the lower IC50 reading. Let me know the label of the one you choose.
A

----------
Molecular target: human CD38 (Homo sapiens, UniProt P28907)
Sequence (P28907 whole entry): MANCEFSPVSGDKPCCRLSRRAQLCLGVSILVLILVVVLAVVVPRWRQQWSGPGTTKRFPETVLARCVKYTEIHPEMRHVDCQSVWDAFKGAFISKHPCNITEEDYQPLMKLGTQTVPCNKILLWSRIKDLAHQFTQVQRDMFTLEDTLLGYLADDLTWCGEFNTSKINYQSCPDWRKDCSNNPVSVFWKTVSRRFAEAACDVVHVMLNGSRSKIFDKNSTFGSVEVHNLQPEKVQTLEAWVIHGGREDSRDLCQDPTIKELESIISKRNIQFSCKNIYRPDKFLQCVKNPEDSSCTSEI
Assay: human recombinant CD38 enzyme assay (hydrolysis of NAD+)
Assay type: biochemical
Conditions: human recombinant CD38, 0.4 nM enzyme, 62.5 μM NAD+; read-out: hCD38 BioChem IC50
pIC50: −log10 of the molar value.
assayReadout: pIC50

Example cases with answers are listed next.
Quote pIC50 reported for O=C(NC1CCC(F)(F)CC1)c1cccc(-n2ccnc2)n1 please.
7.64

Quote pIC50 reported for Cc1ccc(-n2ccnc2)nc1C(=O)Nc1cccnc1 please.
7.80

Quote pIC50 reported for COCCO[C@@H]1CC[C@@H](NC(=O)c2cc(C3CCOCC3)nc(-c3cncn3C)n2)C1 please.
7.60

Quote pIC50 reported for Cn1cncc1-c1ccnc(C(=O)N[C@H]2CC[C@H](OC(F)F)CC2)n1 please.
7.50

Quote pIC50 reported for Cn1cncc1-c1nc(C(=O)Nc2ccc(C(F)F)nc2)cc(C2CC3(COC3)C2)n1 please.
8.60

(1) O=C(Nc1ccc(C(F)(F)F)nc1)c1cccc(-n2ccnc2)n1
(2) Cn1cncc1-c1nccc(C(=O)N[C@H]2CC[C@H](C(F)(F)F)CC2)n1
(3) O=C(N[C@H]1C[C@@H](c2ccccc2)C1)c1nccc(-n2ccnc2)n1
(4) O=C(N[C@H]1CC[C@H](C(F)F)CC1)c1cc(C2CC2)nc(-n2ccnc2)n1
Put the entries in order of pIC50, starting with the largest number. # respond with the labels, arranged in the requested order
1, 2, 4, 3
(1: 8.22, 2: 7.96, 4: 7.59, 3: 6.08)

(a) COc1cc(C(=O)Nc2ccc(C(F)F)nc2)nc(-c2cncn2C)c1
(b) Cn1cncc1-c1nc(C(=O)N[C@H]2CC[C@H](C(F)F)CC2)cc(C(C)(C)O)n1
(c) Cc1cc(-n2ccnc2)nc(C(=O)Nc2ccc(C(F)F)nc2)n1
(d) COc1cc(C(=O)Nc2ccc(C(F)(F)F)nc2)nc(-c2cncn2C)c1
(e) Cn1cncc1-c1ccnc(C(=O)N[C@H]2CC[C@@](O)(c3ccccc3)CC2)n1
Task for the reader: rank each entry by its pIC50, from the minimum upward. # respond with the labels, arranged in the requested order
e, b, d, a, c

(a) Cc1cc(C(=O)N[C@H]2CC[C@H](C)CC2)nc(-c2cncn2C)n1
(b) COc1cc(-c2cncn2C)nc(C(=O)N[C@H]2CC[C@H](OC)CC2)n1
(c) O=C(NC1CC2(C1)CC(F)(F)C2)c1cncc(-n2ccnc2)n1
(d) Cn1cncc1-c1nc(C(=O)N[C@H]2CC[C@H](OC(F)F)CC2)cc(C2CCC(F)(F)CC2)n1
(e) O=C(Nc1cccc(F)c1)c1cccc(-n2ccnc2)n1
Put the entries in order of pIC50, starting with the largest number. # respond with the labels, arranged in the requested order
e, a, d, b, c
